B1: PLAGL1 (parent)
chain: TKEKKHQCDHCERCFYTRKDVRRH

# Variants of: B1
# Assay name: protein stability index of a GFP-peptide fusion (GPS, HEK-293T) (PSI 1-6); higher = more stable;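 further: lentivirally expressed fusions sorted by FACS into six bins by GFP to DsRed ratio, PSI derived from sequencing read proportions per bin multiplied by bin number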
# Experimental context: c terminus: a fixed tail appended
Metric name: protein stability index
Enter the number alone.

// solved cases for protein stability index follow
[[record]]
variant_label = "K4S"
metric_name = "protein stability index"
reported_measurement = 2.93

[[record]]
variant_label = "R13I"
metric_name = "protein stability index"
reported_measurement = 2.62

[[record]]
variant_label = "K2S"
metric_name = "protein stability index"
reported_measurement = 3.39

[[record]]
variant_label = "R22D"
metric_name = "protein stability index"
reported_measurement = 4.31


Provide measured protein stability index value, entry: `C11Q` 3.91

Provide measured protein stability index value, entry: `T17C` 4.01

Provide measured protein stability index value, entry: `R18T` 3.29

Provide measured protein stability index value, entry: `E3K` 3.5

Provide measured protein stability index value, entry: `T17M` 3.26

Provide measured protein stability index value, entry: `H24W` 3.03
